test system: OVCAR-8 ovarian; assay: NCI tumour cell line growth inhibition, 48 h
Items are presented alongside their recorded TGI.
measured_parameter: TGI

>>> print(df.to_string())
                                    compound  test_value
 0  Cc1cc(N(CCC#N)CCC#N)ccc1/C=C1\SC(=S)NC1=O    > 100 µM
 1  CCOC(=O)C(=O)CC(=O)C1=C(c2ccccc2OC)CC(c2cccs2)=CC1=O    > 100 µM
 2                 COc1cc(CCN(C)C)cc(OC)c1OC    > 100 µM
 3                 N#CC[N+]1(Cc2ccccn2)CCCC1    > 100 µM
 4  COP(=O)(O)C(N)Cc1c[nH]c2ccccc12 (stereo not given)    > 100 µM
 5  FC(F)(F)c1cccc2c(SCCc3n[nH]c(=S)o3)ccnc12    > 100 µM
 6  CC1(C(=O)O)CCOc2ccccc21 (stereo not given)    > 100 µM
 7        Cc1ccc(C=NC23CC4CC(CC(C4)C2)C3)cc1    > 100 µM
 8  Cc1ccc(Nc2cc(C)nc(NCCCNc3ccnc4cc(Cl)ccc34)n2)cc1     3.25 µM
 9  C=C(CNC(=O)c1ccccc1)c1ccc(C(=O)Nc2ccccc2N)cc1    > 100 µM
10  CSc1ccc(SC2c3ccc(C)cc3Oc3nc(N)c(C#N)c(N)c32)cc1 (stereo not given)     3.18 µM
11  NCCCN1CCN(CCCNc2nc3ccccc3c3[nH]c4ccccc4c23)CC1     3.88 µM
12  CC(C)CC12CC3CCC(CNC1=O)C32C (stereo not given)    > 100 µM
13  COC(=O)c1ccccc1C1=C([N+](=O)[O-])C(c2ccccc2)C(C#N)=C(N)O1 (stereo not given)    > 100 µM
14  CC(=O)OC(C)c1cc2c(s1)C(=O)c1c(C(C)OC(C)=O)csc1C2=O (stereo not given)     2.05 µM
